The reported numbers originate from the supplement of paper PMC4932681.

# Tested on: MCF-7
# Method: relative IC50 (midpoint of fitted logistic curve, plateau may be below 50% inhibition; CellTiter-Glo viability); higher = less potent
# Measurement Conditions: 4-OH-tamoxifen in medium 1 µM; 72 h
Catalogue of relative IC50 readings, one per entry.
Field: numeric (nM). Do not append units.

[
  {
    "Molecular String": "Cn1cc(CNCC2CCN(c3ncc(C(=O)NO)cn3)CC2)c2ccccc21",
    "Meas Value": 34.7
  }
]

Attention now turns to another entry.
-- ask Provide one value: measured relative IC50 of OC[C@H]1O[C@@H](n2cnc3c2N=CNC[C@H]3O)C[C@@H]1O
-- reply 1320
